System: Estramustine-resistant DU145
Assay: Growth inhibition IC50, Estramustine-resistant line
Format: cell-based
Settings: Homo sapiens, DU-145
OUTCOME_MEASURE: pIC50
Notebook: values listed as pIC50 are -log10 of the concentration (mol/L).

Consider the following illustrative entries.
C[C@]12CC[C@@H]3c4ccc(OC(=O)N(CCCl)CCCl)cc4CC[C@H]3[C@@H]1CC[C@@H]2O
5.10
CC(=O)O[C@@]12CO[C@@H]1C[C@H](O)[C@@]1(C)C(=O)[C@H](O)C3=C(C)[C@@H](OC(=O)[C@H](O)[C@@H](NC(=O)OC(C)(C)C)c4ccccc4)C[C@@](O)([C@@H](OC(=O)c4ccccc4)[C@H]21)C3(C)C
8.30

Could you please provide reported pIC50 for CC[C@@]1(O)C(=O)OCc2c1cc1n(c2=O)Cc2cc3ccccc3nc2-1 ? Thanks! 7.00

* * *

Test system: DU145
Test: Growth inhibition IC50, parent line
Format: cell-based
Conditions: Homo sapiens, DU-145
OUTCOME_MEASURE: pIC50
Convention used: pIC50 is expressed as -log10 of the molar concentration.

CC(=O)O[C@@]12CO[C@@H]1C[C@H](O)[C@@]1(C)C(=O)[C@H](O)C3=C(C)[C@@H](OC(=O)[C@H](O)[C@@H](NC(=O)OC(C)(C)C)c4ccccc4)C[C@@](O)([C@@H](OC(=O)c4ccccc4)[C@H]21)C3(C)C [Docetaxel]
8.52
CC[C@@]1(O)C(=O)OCc2c1cc1n(c2=O)Cc2cc3ccccc3nc2-1 [Camptothecin]
8.00

Give reported pIC50 value for C[C@]12CC[C@@H]3c4ccc(OC(=O)N(CCCl)CCCl)cc4CC[C@H]3[C@@H]1CC[C@@H]2O [Estramustine] 5.10

* * *

Tested on: PrC cell lines
Assay: Dose-response of PrC cell lines to ESM
Assay type: cell-based
Conditions: Homo sapiens; range over the PrC cell lines, Figure S2; read-out: IC50s for ESM
pIC50: −log10 of the molar value.
OUTCOME_MEASURE: pIC50

Read the entry C[C@]12CC[C@@H]3c4ccc(OC(=O)N(CCCl)CCCl)cc4CC[C@H]3[C@@H]1CC[C@@H]2O and write its reported pIC50. 5.76 to 5.85
